# procedureText: Inhibition of IL-6-induced STAT3 phosphorylation in human Cal33 cells assessed as nuclear translocation by Western blot analysis
endpointName: IC50 (µM)
Provide only the numeric value, understood in µM.

Worked cases, answers included:
sampleSmiles: Cc1nc(Nc2nc(=O)cc(-c3ccccc3)[nH]2)nc2cc3c(cc12)OCO3
IC50 [µM]: 13
//
sampleSmiles: COc1ccc2nc(Nc3nc(=O)cc(C)[nH]3)nc(C)c2c1
IC50 [µM]: 34.9

Task item: Which value of IC50 has been reported for "Cc1cc2nc(Nc3nc(=O)c(C)c(C)[nH]3)nc(C)c2cc1C" in the records?
Reply: 10.4

* * *

# tgt: Signal transducer and activator of transcription 1-alpha/beta (Homo sapiens)
# procedureText: Inhibition of IFNgamma-induced STAT1 phosphorylation in human Cal33 cells by Western blot analysis
pIC50: −log10 of the molar value.
Below, each entry is listed alongside its reported pIC50.

The cases that follow already have their pIC50 on record.
sampleSmiles: Cc1cc(C)c2nc(Nc3nc(C)c(C)c(O)n3)nc(C)c2c1
tgt: Signal transducer and activator of transcription 1-alpha/beta (Homo sapiens)
resultValue: < 4.30

sampleSmiles: Cc1nc(Nc2nc(=O)cc(-c3ccccc3)[nH]2)nc2cc3c(cc12)OCO3
tgt: Signal transducer and activator of transcription 1-alpha/beta (Homo sapiens)
resultValue: < 4.30

sampleSmiles: COc1ccc2c(C)nc(Nc3nc(C)cc(O)n3)nc2c1
tgt: Signal transducer and activator of transcription 1-alpha/beta (Homo sapiens)
resultValue: < 4.30

sampleSmiles: Cc1nc(NCc2ccccc2)nc2ccccc12
tgt: Signal transducer and activator of transcription 1-alpha/beta (Homo sapiens)
resultValue: < 4.52

sampleSmiles: COc1ccc2nc(Nc3nc(=O)c(Cc4ccccc4)c(C)[nH]3)nc(C)c2c1
tgt: Signal transducer and activator of transcription 1-alpha/beta (Homo sapiens)
resultValue: 4.30

sampleSmiles: Cc1nc(NCc2ccc3c(c2)OCO3)nc2ccccc12
tgt: Signal transducer and activator of transcription 1-alpha/beta (Homo sapiens)
resultValue: < 4.52

Task item: Please report the recorded pIC50 for "Cc1cc2nc(Nc3nc(=O)c(C)c(C)[nH]3)nc(C)c2cc1C" .
Reply: < 4.30

Task item: Which pIC50 is reported for this molecule? "Cc1nc(NCCN2CCOCC2)nc2ccccc12"
Reply: < 4.52

Task item: Returns the measured pIC50 for the input molecule. Input: "Cc1ccc2c(C)nc(Nc3nc(=O)c(C)c(C)[nH]3)nc2c1"
Reply: 4.45

Task item: // lookup pIC50 for "CCOc1ccc2nc(NC3=NC(C)=CC(C)(C)N3)nc(C)c2c1"
Reply: < 4.30

Task item: Fill in: pIC50 of "CCOc1ccc2nc(Nc3nc(=O)cc(-c4ccccc4)[nH]3)nc(C)c2c1" is ___
Reply: < 4.30

* * *

Recorded pIC50 values for a group of molecules are listed next.
# tgt: Signal transducer and activator of transcription 1-alpha/beta (Homo sapiens)
# procedureText: Inhibition of IFNgamma-induced STAT1 phosphorylation in human Cal33 cells by Western blot analysis
pIC50: −log10 of the molar value.

sampleSmiles: Cc1nc(NC2CCCCC2)nc2ccccc12
pIC50: < 4.52

sampleSmiles: Cc1ccc(CNc2nc(C)c3ccccc3n2)o1
pIC50: < 4.52

sampleSmiles: Cc1ccc2c(C)nc(Nc3nc(=O)cc(C)[nH]3)nc2c1
pIC50: 4.40

sampleSmiles: CCOc1ccc2c(C)nc(NC3=NC(C)=CC(C)(C)N3)nc2c1
pIC50: < 4.30

sampleSmiles: Cc1nc(NCCc2c[nH]c3ccccc23)nc2ccccc12
pIC50: < 4.52

Task item: Field request: pIC50 | item: "CCOc1ccc2nc(Nc3nc(=O)c(C)c(C)[nH]3)nc(C)c2c1"
Reply: < 4.30

Task item: Bench note: what pIC50 did "Cc1nc(Nc2ccccn2)nc2ccccc12" show?
Reply: < 4.52

* * *

Documented pIC50 across a set of molecules
# procedureText: Inhibition of IL-6-induced STAT3 phosphorylation in human Cal33 cells assessed as nuclear translocation by Western blot analysis
pIC50: −log10 of the molar value.

See these solved cases before continuing.
sampleSmiles: Cc1nc(NCCc2c[nH]c3ccccc23)nc2ccccc12
pIC50: < 4.52
--
sampleSmiles: Cc1cc(=O)nc(Nc2nc(C)c3cc4c(cc3n2)OCO4)[nH]1
pIC50: < 4.30
--
sampleSmiles: Cc1[nH]c(Nc2nc(C)c3cc4c(cc3n2)OCO4)nc(=O)c1Cc1ccccc1
pIC50: < 4.30

Task item: For the molecule shown here, "Cc1nc(NCCN2CCOCC2)nc2ccccc12" , give the reported pIC50.
Reply: < 4.52

Task item: // pIC50 lookup, key: "Cc1cc(C)c2nc(Nc3nc(C)c(C)c(O)n3)nc(C)c2c1"
Reply: 5.19

* * *

Each entry below carries its reported pIC50.
# procedureText: Inhibition of IL-6-induced STAT3 phosphorylation in human Cal33 cells assessed as nuclear translocation by Western blot analysis
pIC50: −log10 of the molar value.

Task item: # query: pIC50 of entry "Cc1[nH]c(Nc2nc(C)c3cc4c(cc3n2)OCO4)nc(=O)c1C"
Reply: < 4.30

Task item: Recorded pIC50 for "Cc1nc(NCc2ccccc2)nc2ccccc12" , please?
Reply: < 4.52

Task item: Quick one: pIC50 for "Cc1nc(NCc2ccc3c(c2)OCO3)nc2ccccc12" ?
Reply: < 4.52

* * *

# tgt: Signal transducer and activator of transcription 1-alpha/beta (Homo sapiens, UniProt P42224)
# Sequence (P42224 whole entry): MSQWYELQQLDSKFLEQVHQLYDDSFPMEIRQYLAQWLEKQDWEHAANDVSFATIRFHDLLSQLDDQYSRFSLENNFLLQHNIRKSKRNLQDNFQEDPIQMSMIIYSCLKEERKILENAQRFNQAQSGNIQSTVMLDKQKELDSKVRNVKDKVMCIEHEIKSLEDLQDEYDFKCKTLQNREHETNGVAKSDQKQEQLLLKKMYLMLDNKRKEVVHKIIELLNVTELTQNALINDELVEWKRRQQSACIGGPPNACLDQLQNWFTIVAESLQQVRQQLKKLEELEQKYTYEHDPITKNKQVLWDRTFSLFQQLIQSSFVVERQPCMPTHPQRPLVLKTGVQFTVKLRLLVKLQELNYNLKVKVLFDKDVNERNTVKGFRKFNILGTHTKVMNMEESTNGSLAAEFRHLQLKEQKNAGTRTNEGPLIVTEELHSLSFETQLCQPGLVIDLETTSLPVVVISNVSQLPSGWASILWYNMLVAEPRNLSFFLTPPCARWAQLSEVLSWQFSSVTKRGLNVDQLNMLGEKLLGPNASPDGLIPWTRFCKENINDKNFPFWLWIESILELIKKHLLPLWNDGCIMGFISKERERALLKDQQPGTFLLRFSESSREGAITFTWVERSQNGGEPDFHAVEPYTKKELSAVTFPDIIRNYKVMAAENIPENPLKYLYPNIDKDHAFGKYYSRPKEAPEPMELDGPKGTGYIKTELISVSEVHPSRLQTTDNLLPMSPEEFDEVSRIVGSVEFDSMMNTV
# procedureText: Inhibition of IFNgamma-induced STAT1 phosphorylation in human Cal33 cells by Western blot analysis
IC50 overview

Task item: // IC50 lookup, key: "Cc1cc(C)c2nc(Nc3nc(=O)cc(-c4ccccc4)[nH]3)nc(C)c2c1"
Reply: > 50 µM

Task item: Entry under review: "Cc1cc(=O)nc(Nc2nc(C)c3cc4c(cc3n2)OCO4)[nH]1" . Reported IC50?
Reply: > 50 µM

Task item: Any idea what IC50 was measured for "Cc1nc(NCc2cccc3ccccc23)nc2ccccc12" ?
Reply: > 30 µM

Task item: What does the data say about its IC50? Entry: "Cc1cc(=O)nc(Nc2nc(C)c3cc(C)c(C)cc3n2)[nH]1"
Reply: > 50 µM

Task item: # query: IC50 of entry "COc1ccc2nc(Nc3nc(=O)cc(C)[nH]3)nc(C)c2c1"
Reply: > 50 µM

Task item: Given the compound "Cc1nc(Nc2ccccc2)nc2ccccc12" , what is its reported IC50?
Reply: > 30 µM

Task item: Item "CC1=CC(C)(C)N=C(Nc2nc(C)c3cc(C)cc(C)c3n2)N1" has what recorded IC50?
Reply: 5.9 µM

Task item: Entry "C=CCc1c(C)[nH]c(Nc2nc(C)c3cc(C)cc(C)c3n2)nc1=O" has what IC50?
Reply: > 50 µM

Task item: Which IC50 value belongs to "CCOc1ccc2nc(Nc3nc(=O)cc(C)[nH]3)nc(C)c2c1" ?
Reply: > 50 µM

Task item: Give the measured IC50 of "Cc1[nH]c(Nc2nc(C)c3cc4c(cc3n2)OCO4)nc(=O)c1C" .
Reply: > 50 µM

Task item: // returns reported IC50 for input "CC1=CC(C)(C)N=C(Nc2nc(C)c3cc(C)ccc3n2)N1"
Reply: > 50 µM

Task item: Fill blank: measured IC50 of the compound "Cc1[nH]c(Nc2nc(C)c3cc4c(cc3n2)OCO4)nc(=O)c1Cc1ccccc1" is ____.
Reply: > 50 µM

These data points were gathered from BindingDB's records for doi:10.1016/j.bmcl.2014.09.001.
